Give Test G disease control rating for every item shown.
Test system: Septoria tritici
Assay: Test G: wheat leaf blotch on wheat seedlings, sprayed the day before inoculation, visual disease rating
Assay type: in vivo
Settings: 200 ppm; 100 = 100% disease control, 0 = no control relative to controls
Answers are plain numbers, in %.

COC(=O)c1ccc(-n2c(Br)nc(Cl)c2-c2c(F)cccc2F)cc1 [compound 690] :: 98
COc1cc(F)c(-c2c(Cl)nc(Cl)n2-c2ccc(C)nc2)c(F)c1 [compound 553] :: 99
CCOc1ccc(F)c(-c2c(Cl)nc(Br)n2-c2cccc(F)c2)c1F [compound 663] :: 99

// for each compound below, give its Test G disease control rating
1. COc1nc(Cl)ccc1-n1c(Cl)nc(Cl)c1-c1c(F)cccc1F [compound 619]
2. Cc1nc(Cl)n(-c2ccc(F)cc2Cl)c1-c1ccc(Cl)c(F)c1 [compound 573]

### Response
1: 96; 2: 96

###

Please go through the items and note down their Test I disease control rating.
Tested on: Puccinia recondita f. sp. tritici
Assay: Test I: wheat leaf rust on wheat seedlings, sprayed the day before inoculation, visual disease rating
Type: in vivo
Settings: 200 ppm; 100 = 100% disease control, 0 = no control
Answers are plain numbers, in %.

Cc1ncn(-c2ccc(Cl)c(F)c2)c1-c1ccncc1 [compound 253] :: 74
Cc1nc(Cl)n(-c2ccc(Cl)c(F)c2)c1-c1ccccc1F [compound 260] :: 94
COc1cc(F)c(-c2c(Cl)nc(Cl)n2-c2cccc(F)c2)c(F)c1 [compound 257] :: 100

Batch: Test I disease control rating for all items listed.
1. Cc1ccc(-n2c(Br)nc(Cl)c2-c2c(F)cccc2F)cc1F [compound 170]
2. Cc1nc(Cl)c(-c2ccc(Cl)cc2)n1Cc1cccc(Cl)c1 [compound 295]

### Response
1: 99; 2: 80

###

System: Septoria tritici
Assay: Test G: wheat leaf blotch on wheat seedlings, sprayed the day before inoculation, visual disease rating
Assay type: in vivo
Details: 200 ppm; 100 = 100% disease control, 0 = no control relative to controls
Assign Test G disease control rating to each entry below.
Answers are plain numbers, in %.

Example compounds with recorded Test G disease control rating:
Cc1nc(Cl)c(-c2ccc(Cl)cc2)n1-c1ccc(F)cc1Cl :: 100
Cc1ccc(-n2c(C)nc(Cl)c2-c2c(F)cc(OC(F)F)cc2F)cc1 :: 100
COc1cc(F)c(-c2c(Cl)nc(C)n2-c2cccc(OC(F)F)c2)c(F)c1 :: 97
COc1cc(F)c(-c2c(Cl)nc(C)n2-c2cccc(Cl)c2)c(F)c1 :: 94
Cc1ccc(-n2c(Br)nc(Cl)c2-c2c(F)ccc(F)c2F)cc1 :: 91
Cc1cccc(-c2c(C)nc(Cl)n2-c2ccc(Cl)c(F)c2)n1 :: 93

For the 2 compounds below, give their Test G disease control rating values.
1. COc1cc(F)c(-c2c(C)nc(Cl)n2-c2ccc(C(F)(F)F)nc2)c(F)c1
2. COc1cncc(F)c1-c1c(Cl)nc(Cl)n1-c1ccc(Cl)c(F)c1

### Response
1: 99; 2: 99

###

For each entry below, report its Test F disease control rating value.
Test system: Septoria nodorum
Experiment: Test F: wheat glume blotch on wheat seedlings, sprayed the day before inoculation, visual disease rating
Type: in vivo
Conditions: 200 ppm; 100 = 100% disease control, 0 = no control
Numbers only, in %.

Cc1ccc(-n2c(C)nc(Cl)c2-c2c(F)cccc2F)cc1F :: 82

State recorded Test F disease control rating for all listed compounds.
1. Fc1ccc(F)c(-c2c(Cl)ncn2Cc2ccc(Cl)cc2)c1F
2. COc1cc(F)c(-c2c(C)nc(Cl)n2-c2ccc(Cl)nc2)c(F)c1

### Response
[97, 100]

###

Tested on: Puccinia recondita f. sp. tritici
Test: Test I: wheat leaf rust on wheat seedlings, sprayed the day before inoculation, visual disease rating
Format: in vivo
Details: 40 ppm (marked *); 100 = 100% disease control
Marks after values point to notes of the source that are not given here.
readoutLabel: Test I disease control rating

Guide cases for Test I disease control rating, answers given:
Cc1nc(C)n(-c2ccc(F)cc2)c1-c1c(F)cc(F)cc1F [compound 491] :: 0* %
Fc1cc(-n2c(Cl)nc(Br)c2-c2c(F)ccc(F)c2Cl)ccc1Cl [compound 463] :: 100* %

Give Test I disease control rating for all molecules that follow.
1. COc1cc(F)c(-c2c(Br)nc(OC)n2-c2ccc(Cl)cc2)c(F)c1 [compound 96]
2. Cc1ncc(-c2ccc(Cl)cc2)n1-c1c(F)cc([N+](=O)[O-])cc1F [compound 700]
3. Cc1ccc(-n2c(Cl)nc(C)c2-c2c(F)ccc(F)c2F)cc1 [compound 496]
4. Cc1nc(Cl)n(-c2ccc(F)cc2)c1-c1c(F)cc(F)cc1F [compound 492]
5. COc1cc(F)c(-n2c(Br)nc(C)c2-c2cccc(F)c2)c(F)c1 [compound 687]
6. COc1cc(F)c(-c2c(Cl)nc(Br)n2-c2ccc(OC)c(Cl)c2)c(F)c1 [compound 645]

### Response
["97* %", "0* %", "0* %", "0* %", "100* %", "83* %"]

Please look at the items below and tell me Test I disease control rating for each one, in order.
1. Cc1ccc(-n2c(C)nc(C)c2-c2c(F)ccc(F)c2Cl)cc1 [compound 493]
2. COc1cc(F)c(-c2c(Cl)nc(Br)n2-c2ccc(C)cc2F)c(F)c1 [compound 654]
3. Cc1ccc(-n2c(Br)nc(Br)c2-c2c(F)ccc(F)c2Cl)cc1 [compound 460]
4. COc1cc(F)c(-c2c(Cl)nc(Cl)n2-c2ccc(C)cc2F)c(F)c1 [compound 653]
5. COc1cc(F)c(-n2c(Cl)nc(CCl)c2-c2ccc(C)cc2)c(F)c1 [compound 581]
6. Cc1nc(Br)c(-c2c(F)cccc2F)n1-c1ccc2c(c1)OCCO2 [compound 602]
7. COC(=O)c1ccc(-n2cnc(N(C)C)c2-c2c(F)cccc2F)cc1 [compound 633]
8. COc1cc(F)c(-c2c(Cl)nc(C)n2-c2ccc(C)c(Cl)c2)c(F)c1 [compound 601]

### Response
1. 97* %
2. 99* %
3. 93* %
4. 100* %
5. 98* %
6. 98* %
7. 44* %
8. 97* %

I would be grateful if you could provide Test I disease control rating for each of the following entries.
1. COc1cc(F)c(-c2c(C)ncn2-c2ccc(Cl)cc2)c(F)c1 [compound 56]
2. Fc1cccc(F)c1-c1c(Cl)nc(CCl)n1-c1ccc2c(c1)OCCO2 [compound 469]

### Response
1: 94* %; 2: 81* %

###

System: Septoria tritici
Test: Test G: wheat leaf blotch on wheat seedlings, sprayed the day before inoculation, visual disease rating
Assay type: in vivo
Conditions: 200 ppm; 100 = 100% disease control, 0 = no control relative to controls
Record form. Attribute: Test G disease control rating. Fill in for each entry.

Cc1nc(Cl)c(-c2c(F)ccc(Cl)c2F)n1-c1ccc(Cl)cc1 [compound 127] :: 95%
COc1cc(F)c(-c2c(Cl)nc(Cl)n2-c2ccc(F)c(F)c2)c(F)c1 [compound 454] :: 93%
Fc1cc(-n2c(Cl)nc(CCl)c2-c2ccnc(Br)c2)ccc1Cl [compound 353] :: 8%

Hey, can you go through the list below and give me Test G disease control rating for every item?
1. Cc1nc(Cl)c(-c2c(F)cccc2F)n1-c1ccc(SCCl)cc1 [compound 529]
2. COc1cc(F)c(-c2c(Cl)nc(Br)n2-c2ccc(OC(F)F)cc2)c(F)c1 [compound 546]
3. Fc1cc(-n2c(Cl)nc(Cl)c2-c2cncc(Br)c2)ccc1Cl [compound 486]
4. Fc1cc(F)c(-c2c(Cl)ncn2-c2cccc(OC(F)(F)F)c2)c(F)c1 [compound 586]
5. Fc1ccc(-n2c(Br)nc(Cl)c2-c2c(F)cccc2F)cc1 [compound 72]

### Response
["82%", "98%", "0%", "3%", "97%"]

Tested system Septoria tritici; Test G disease control rating recorded for Fc1ccc(F)c(-c2c(Cl)nc(Br)n2-c2ccc(Cl)cc2)c1 [compound 85] was 98%

###

Tested on: Botrytis cinerea
Test: Test C: tomato Botrytis on tomato seedlings, sprayed the day before inoculation, visual disease rating
Type: in vivo
Conditions: 40 ppm (marked *); 100 = 100% disease control, 0 = no control
Marks after values point to notes of the source that are not given here.
Would you mind telling me the reported Test C disease control rating of each entry?

Observe how each entry below is paired with its result.
COc1cc(F)c(-n2c(Cl)nc(Br)c2-c2ccc(Cl)cc2)c(F)c1 [compound 214] :: 100* %
Fc1cccc(F)c1-n1c(Br)nc(Br)c1-c1ccc(Cl)cc1 [compound 162] :: 88* %
Cc1nc(Br)n(-c2c(F)cc(F)cc2F)c1-c1ccc(Cl)cc1 [compound 445] :: 97* %

Provide Test C disease control rating for all items below, preserving their order.
1. COc1cc(F)c(-n2c(C)nc(Cl)c2-c2ccc(Cl)cc2)c(F)c1 [compound 423]
2. COc1cc(F)c(-n2cnc(Cl)c2-c2ccc(Cl)cc2)c(F)c1 [compound 277]
3. Cc1nc(C)n(-c2ccc(Cl)c(F)c2)c1-c1c(F)ccc(F)c1F [compound 415]
4. Cc1nc(Cl)n(-c2c(F)cc(F)cc2F)c1-c1ccc(Cl)cc1 [compound 446]
5. Cc1nc(C)n(-c2ccc(Cl)cc2)c1-c1c(F)cccc1F [compound 151]
6. Cc1nc(Cl)c(-c2c(F)cccc2F)n1-c1ccc2ccccc2c1 [compound 303]

### Response
100* %
99* %
100* %
96* %
97* %
100* %

Below are some molecules; for each one, tell me its Test C disease control rating.
1. Fc1ccc(-n2c(Br)nc(Br)c2-c2c(F)ccc(F)c2F)cc1 [compound 384]
2. Cc1nc(C)n(-c2ccc(F)cc2)c1-c1c(F)ccc(F)c1F [compound 417]

### Response
["100* %", "100* %"]

Can you give me Test C disease control rating for all of these, one by one?
1. Fc1cc(F)c(-n2c(Br)nc(Br)c2-c2ccc(Cl)cc2)c(F)c1 [compound 218]
2. Fc1cccc(F)c1-n1cnc(Cl)c1-c1ccc(Cl)cc1 [compound 163]

### Response
1: 99* %; 2: 0* %
